- ASSAY_SYSTEM: HLA-A*29:02
- MEASUREMENT_NOTES: IEDB peptide-MHC binding, purified MHC/direct/fluorescence; filed as Kd, often an IC50 or EC50 that approximates it; bounds were set here for any values at or beyond the usual limits of such assays
- STUDY_CONDITIONS: source organism: Giardia lamblia ATCC 50803
MEASURE_NAME: pKd
Answers are plain numbers, as −log10 of the molar value.

Can you look up the measured pKd of MTFPLHFRS for me?
7.55

---

- ASSAY_SYSTEM: HLA-A*03:01
- MEASUREMENT_NOTES: IEDB peptide-MHC binding, purified MHC/competitive/fluorescence; filed as Kd, often an IC50 or EC50 that approximates it; bounds were set here for any values at or beyond the usual limits of such assays
- STUDY_CONDITIONS: source organism: Entamoeba histolytica HM-1:IMSS
MEASURE_NAME: pKd
One number for each entry, as −log10 of the molar value.

Lookup: pKd / HLA-A*03:01 / GLFNYFFGK
7.39

Cited source for all entries: the Immune Epitope Database (IEDB)
